molecular target: anti-A028 antibody (IL-1beta PET); experiment: peptide competition assay in 6% BSA
Where no end group is shown, it is not given here.
experimental.endpoint: pIC50
Worth noting: pIC50 values are minus log10 of concentrations stated in mol/L.

Task: Consider the binder shown here: CENMPVFLGGTK-NH2 [A028 peptide (IL-1beta), …-NH2] What is its recorded pIC50?
Result: 9.30
